Ref: ChEMBL document CHEMBL1938383

target.entity: Sphingosine 1-phosphate receptor 3 (Homo sapiens)
Sequence (Q99500 whole entry): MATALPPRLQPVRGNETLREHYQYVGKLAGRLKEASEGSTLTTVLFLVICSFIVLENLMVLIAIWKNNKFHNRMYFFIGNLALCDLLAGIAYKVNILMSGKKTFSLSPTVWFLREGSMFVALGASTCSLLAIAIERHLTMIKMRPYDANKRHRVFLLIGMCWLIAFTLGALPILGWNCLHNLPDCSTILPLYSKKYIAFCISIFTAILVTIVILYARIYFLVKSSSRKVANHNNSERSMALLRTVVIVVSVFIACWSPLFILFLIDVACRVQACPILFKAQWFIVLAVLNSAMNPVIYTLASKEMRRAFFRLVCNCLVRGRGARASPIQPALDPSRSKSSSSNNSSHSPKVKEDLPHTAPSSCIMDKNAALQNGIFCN
assay.explanation: Agonist activity at human S1P3 receptor expressed in CHO cells coexpressing Gq/i5 protein by calcium flux assay relative to control
Assay type: functional, cell-based
experimental.endpoint: Efficacy (%)

• CC1SCCN1C(=O)c1ccc2nc(-c3ccc(CN4CC(C(=O)O)C4)cc3F)sc2c1 (racemic) = 71
• CCC(c1ccc2nc(-c3ccc(CN4CC(C(=O)O)C4)cc3F)sc2c1)c1ccccn1 (single isomer, unassigned; (+)) = 30
• CC(C)C1SCCN1C(=O)c1ccc2nc(-c3ccc(CN4CC(C(=O)O)C4)cc3F)sc2c1 (racemic) = 87

(1) CCC1SCCN1C(=O)c1ccc2nc(-c3ccc(CN4CC(C(=O)O)C4)cc3F)sc2c1 (single isomer, unassigned; (+))
(2) O=C(O)C1CN(Cc2ccc(-c3nc4ccc(C(=O)N5CCSC5)cc4s3)c(F)c2)C1
Task item: I'm curious whether 1 or 2 has the smaller Efficacy number. Which is it? Reply briefly: the label of your chosen item.
Reply: 2
(2: 21%, 1: 82%)

(P) CCC1SCCN1C(=O)c1ccc2nc(-c3ccc(CN4CC(C(=O)O)C4)cc3F)sc2c1 (stereo in doubt; (-)-11f)
(Q) CC1(C)SCCN1C(=O)c1ccc2nc(-c3ccc(CN4CC(C(=O)O)C4)cc3F)sc2c1
Task item: Pick one: P or Q . Which has the bigger Efficacy number? Reply briefly: the label of your chosen item.
Reply: Q
